- Study Target: human CTPS1 (Homo sapiens)
- Construct: FLAG (with GG linker); His8 (with GG linker); purchased Proteros biostructures GmbH
- Sequence (P17812 1-591): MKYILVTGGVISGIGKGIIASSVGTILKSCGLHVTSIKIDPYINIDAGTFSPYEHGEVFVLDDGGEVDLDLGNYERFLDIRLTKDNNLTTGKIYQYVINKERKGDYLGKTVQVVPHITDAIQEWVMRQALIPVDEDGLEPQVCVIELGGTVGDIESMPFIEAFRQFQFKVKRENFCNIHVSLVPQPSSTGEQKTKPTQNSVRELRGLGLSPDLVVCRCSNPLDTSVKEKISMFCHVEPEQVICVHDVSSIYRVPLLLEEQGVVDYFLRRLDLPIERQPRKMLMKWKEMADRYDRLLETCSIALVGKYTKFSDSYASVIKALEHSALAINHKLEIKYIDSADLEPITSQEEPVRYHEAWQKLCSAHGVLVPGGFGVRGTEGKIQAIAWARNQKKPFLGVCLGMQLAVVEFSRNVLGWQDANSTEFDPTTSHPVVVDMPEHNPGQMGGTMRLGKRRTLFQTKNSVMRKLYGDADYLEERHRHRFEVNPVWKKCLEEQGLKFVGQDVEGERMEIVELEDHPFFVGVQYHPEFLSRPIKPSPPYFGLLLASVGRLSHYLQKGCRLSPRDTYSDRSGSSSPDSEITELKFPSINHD
- Procedure Details: Human CTPS1 enzyme inhibition, ADP-Glo Max assay
- Format: biochemical
- Protocol Conditions: ADP-Glo Max assay; Table 10; read-out: Human CTPS1 Enzyme Inhibition, IC50 grouped by potency range (CTPS1)
Assay Readout: IC50

Past entries and their recorded results:
>>> measurement("COc1ccc(-c2ccc(NC(=O)C(C)(C)c3csc(NS(=O)(=O)C4CC4)n3)cc2)cn1")
"1000 to 10000 nM"
>>> measurement("CC(C)(C(=O)Nc1ccc(-c2cncc(C(F)(F)F)n2)cc1)c1csc(NS(=O)(=O)C2CC2)n1")
"< 100 nM"
>>> measurement("CC(C)(C(=O)Nc1ccc(-c2cnccn2)cn1)c1csc(NS(=O)(=O)C2CC2)n1")
"100 to 1000 nM"
>>> measurement("CC(C)(C(=O)Nc1ccc(-c2cccnn2)cc1)c1csc(NS(=O)(=O)C2CC2)n1")
"100 to 1000 nM"
>>> measurement("CCOc1cncc(-c2ccc(NC(=O)C(C)(C)c3csc(NS(=O)(=O)C(C)C)n3)cc2)n1")
"< 100 nM"

Query :: Query: IC50; subject: `CC(C)(C(=O)Nc1ccc(-c2cncc(OC3CC3)n2)cn1)c1csc(NS(=O)(=O)C2CC2)n1`
Result :: < 100 nM

All figures here come from patent US20230086703A1.
